Attribution: patent US4338122A

- Test system: Perennial rye grass
- TEST_METHOD_NOTES: Preliminary herbicide seed germination test (pre-emergent), rye grass
- Assay type: in vivo, Solium perenne
- Design: key: 5: no seedling emerged; 4: few seedlings emerged and/or very severe stunting; 3: moderate reduction in stand and/or moderate stunting; 2: very slight reduction in stand and/or slight stunting; 1: no injury; seedlings appear no different with respect to stand or growth than untreated controls
- CONDITION: Table II; ten to twelve days after application
This listing pairs molecules with measured Pre-emergent Herbicidal, Rye (injury rating).
Form field (numeric): enter value without unit.

Example entries begin here.
Problem: Entry Cc1ccccc1C1C(=O)c2ccccc2C1=O [Reference I Page 3, Compound 1, reference compound] : reported Pre-emergent Herbicidal, Rye (injury rating) = ?
Result: 1

Problem: // lookup Pre-emergent Herbicidal, Rye (injury rating) for Cc1ccc(C2C(=O)C3CCCCC3C2=O)c(C)c1 (centres unmarked) [CH3 CH3 H (CH2)4]
Result: 5

Problem: What measured Pre-emergent Herbicidal, Rye (injury rating) goes with Cc1ccc(C2C(=O)CCC2=O)c(C)c1 [CH3 CH3 H H H] ?
Result: 5

---
Problem: # input molecule: Cc1ccccc1C1C(=O)C2CCCCC2C1=O (centres unmarked) [CH3 H H (CH2)4] ; wanted: its Pre-emergent Herbicidal, Rye (injury rating)
Result: 5

Problem: # lookup: Pre-emergent Herbicidal, Rye (injury rating) of Cc1ccc(C2C(=O)c3ccccc3C2=O)c(C)c1 [Reference II Page 146, Compound 9, reference compound]
Result: 4

Problem: So what does the record say about Pre-emergent Herbicidal, Rye (injury rating) for Cc1ccc(C)c(C2C(=O)C3CCCCC3C2=O)c1 (centres unmarked) [CH3 H CH3 (CH2)4] ?
Result: 1

Problem: I am curious: what Pre-emergent Herbicidal, Rye (injury rating) value has been reported for Cc1ccc(C)c(C2C(=O)c3ccccc3C2=O)c1 [Reference II Page 146, Compound 6, reference compound] ?
Result: 1

Problem: Which Pre-emergent Herbicidal, Rye (injury rating) reading was recorded for the molecule Cc1ccccc1C1C(=O)CCC1=O [CH3 H H H H] ?
Result: 5
